Assay read-out pIC50 on PYK2 (Homo sapiens (Human)); records merged from the literature.
Sequence (Q14289 whole entry): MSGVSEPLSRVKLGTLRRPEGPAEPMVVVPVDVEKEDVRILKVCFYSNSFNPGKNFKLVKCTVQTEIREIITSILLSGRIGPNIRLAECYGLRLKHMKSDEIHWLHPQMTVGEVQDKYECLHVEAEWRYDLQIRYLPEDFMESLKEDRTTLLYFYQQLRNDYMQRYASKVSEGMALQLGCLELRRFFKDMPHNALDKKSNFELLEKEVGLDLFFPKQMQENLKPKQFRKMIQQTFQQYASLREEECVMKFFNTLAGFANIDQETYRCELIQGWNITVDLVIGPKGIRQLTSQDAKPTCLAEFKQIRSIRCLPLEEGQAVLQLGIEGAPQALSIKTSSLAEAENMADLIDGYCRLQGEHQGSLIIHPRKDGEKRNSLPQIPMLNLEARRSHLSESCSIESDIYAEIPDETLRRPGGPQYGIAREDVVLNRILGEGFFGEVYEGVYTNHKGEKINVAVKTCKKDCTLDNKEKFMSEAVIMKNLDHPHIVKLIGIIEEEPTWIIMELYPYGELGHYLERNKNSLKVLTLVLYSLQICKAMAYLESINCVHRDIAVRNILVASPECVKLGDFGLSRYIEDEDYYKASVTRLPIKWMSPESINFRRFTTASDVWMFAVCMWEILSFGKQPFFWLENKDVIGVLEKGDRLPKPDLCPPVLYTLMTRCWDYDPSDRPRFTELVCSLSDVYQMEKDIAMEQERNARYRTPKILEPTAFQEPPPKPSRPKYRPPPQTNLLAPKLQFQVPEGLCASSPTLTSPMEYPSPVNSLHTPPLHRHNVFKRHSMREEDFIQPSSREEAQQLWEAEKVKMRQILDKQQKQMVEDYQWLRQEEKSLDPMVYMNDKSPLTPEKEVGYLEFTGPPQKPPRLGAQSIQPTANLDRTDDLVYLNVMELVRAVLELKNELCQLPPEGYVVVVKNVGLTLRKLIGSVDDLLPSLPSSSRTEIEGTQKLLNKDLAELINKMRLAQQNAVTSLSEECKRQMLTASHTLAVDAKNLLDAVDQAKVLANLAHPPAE
pIC50: −log10 of the molar value.

stdin: Which measured pIC50 belongs to `O=C(c1ccc(O)cc1Cl)c1c[nH]c2ncccc12` , tested on PYK2 (Homo sapiens (Human))?
stdout: ≥ 5.00

stdin: Next entry: `COCCNS(=O)(=O)c1ccccc1Nc1nc(Nc2ccc(N3CCOCC3)cc2OC)nc2c1CCN2`
stdout: > 7.30

stdin: Next entry: `O=C(Nc1ccc(F)c(Cc2c[nH]c3ncc(-c4cccnc4)cc23)c1F)OCc1ccccc1`
stdout: ≥ 5.00

stdin: Next entry: `CNC(=O)c1ccccc1Nc1nc(Nc2ccc(N3CCOCC3)cc2CO)nc2c1CCN2`
stdout: < 6.00

stdin: Next entry: `Cc1ccc2c(c1)/C(=C/c1[nH]c3c(c1CCC(=O)O)CCCC3)C(=O)N2`
stdout: 5.39

stdin: Next entry: OC(c1ccccc1OCc1ccccc1)c1c[nH]c2ncc(Br)cc12 (centres unmarked)
stdout: ≥ 5.00

stdin: Next entry: `CCCS(=O)(=O)Nc1cccc(C(=O)c2c[nH]c3ncc(-c4ccccc4)cc23)c1F`
stdout: ≥ 5.00

stdin: Next entry: `COCCCNS(=O)(=O)c1ccccc1Nc1nc(Nc2ccc(N3CCOCC3)cc2OC)nc2c1C(C)(C)CN2`
stdout: > 7.70

---

pIC50: −log10 of the molar value.
Assay read-out pIC50 on PYK2 (Homo sapiens (Human)); records merged from the literature.

Worked cases, pIC50 given:
stdin: Which value of pIC50 has been reported for `CNC(=O)c1cccc(Nc2nc3c(c(Nc4ccccc4S(=O)(=O)NC(C)C)n2)CCN3)c1` in the records?
stdout: > 7.30

stdin: Next entry: `COc1cc(N2CCOCC2)ccc1Nc1nc2c(c(Nc3ccccc3S(=O)(=O)N(C)C)n1)C(C)(C)CN2`
stdout: > 7.70

stdin: Next entry: `O=C(O)CCc1c(/C=C2\C(=O)Nc3ccccc32)[nH]c2c1CCCC2`
stdout: > 6.11

stdin: Next entry: COc1cc(N2C(C)COCC2C)ccc1Nc1nc2c(c(Nc3ccccc3S(=O)(=O)NC(C)C)n1)CCN2 (centres unmarked)
stdout: > 7.00

stdin: Next entry: `CNS(=O)(=O)c1ccc2c(c1)/C(=C/c1c[nH]c3ccccc13)C(=O)N2`
stdout: 4.24

More entries:
stdin: Which value of pIC50 has been reported for `CCCS(=O)(=O)Nc1ccc(F)c(Cc2c[nH]c3ncc(C(C)C)cc23)c1F` in the records?
stdout: ≥ 5.00

stdin: Next entry: `CCCNS(=O)(=O)c1ccccc1Nc1nc(Nc2ccc(N3CCOCC3)cc2OC)nc2c1CCN2`
stdout: > 7.70

stdin: Next entry: `COc1cc(N2CCOCC2)ccc1Nc1nc2c(c(Nc3ccccc3S(=O)(=O)NCC(C)C)n1)C(C)(C)CN2`
stdout: > 7.70

---

Assay read-out IC50 on UniProtKB Q14289; records merged from the literature.

stdin: Which value of IC50 has been reported for `COc1cc(N2CCOCC2)ccc1Nc1nc2c(c(Nc3ccccc3S(=O)(=O)NC3CCCC3)n1)C1(CC1)CN2` in the records?
stdout: < 0.1 µM

More entries:
stdin: Which value of IC50 has been reported for `COc1cc(N2CCOCC2)ccc1Nc1nc2c(c(Nc3ccccc3S(=O)(=O)NC(C)C)n1)C1(CC1)CN2` in the records?
stdout: < 0.02 µM

stdin: Next entry: `CNC(=O)c1ccccc1Nc1nc(Nc2cc(C)nn2C)nc2c1C(C)(C)CN2`
stdout: < 0.05 µM

stdin: Next entry: `Cc1[nH]c2ccccc2c1/C=C1\C(=O)Nc2ccc(C(=O)O)cc21`
stdout: 37.1 µM

stdin: Next entry: `O=C(Nc1ccc(Cc2c[nH]c3ncccc23)cc1)Nc1cccc(C(F)(F)F)c1`
stdout: ≤ 10 µM

stdin: Next entry: `COc1nc(N2CCOCC2)ccc1Nc1nc2c(c(Nc3ccccc3S(=O)(=O)NC(C)C)n1)CCN2`
stdout: < 0.05 µM

stdin: Next entry: `O=C(c1cccc(O)c1F)c1c[nH]c2ncc(-c3cccs3)cc12`
stdout: ≤ 10 µM

stdin: Next entry: `CNS(=O)(=O)c1ccccc1Nc1nc(Nc2ccc(N3CCOCC3)cc2OC)nc2c1CCN2`
stdout: < 0.05 µM
